Just for reference, patent US20260242735A1 is where these values come from.

molecular target: human CD33 K126A (human, UniProt P20138 18-364); test: flow cytometry on HEK293-T, alanine scan
Sequence (P20138 18-364 K126A limits assumed): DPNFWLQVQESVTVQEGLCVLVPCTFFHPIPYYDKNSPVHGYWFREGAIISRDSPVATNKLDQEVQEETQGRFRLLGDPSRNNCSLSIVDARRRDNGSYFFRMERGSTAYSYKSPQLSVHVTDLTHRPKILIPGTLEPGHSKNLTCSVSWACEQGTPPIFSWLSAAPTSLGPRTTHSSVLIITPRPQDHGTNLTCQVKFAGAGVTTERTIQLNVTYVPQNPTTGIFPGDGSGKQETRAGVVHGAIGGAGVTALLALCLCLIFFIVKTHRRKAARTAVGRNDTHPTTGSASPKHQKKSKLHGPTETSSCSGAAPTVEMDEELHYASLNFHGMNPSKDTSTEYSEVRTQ
measuredMetric: Mean % WT Binding (% WT binding)
State just the number; it will be interpreted in % WT binding.

GET /value?item= Refmab #3 (antibody, V domains shown, The alanine scan used IgG or Fab) VH: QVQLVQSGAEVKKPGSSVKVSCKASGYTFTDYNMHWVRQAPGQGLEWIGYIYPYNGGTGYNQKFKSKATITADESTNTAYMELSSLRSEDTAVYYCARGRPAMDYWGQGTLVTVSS VL: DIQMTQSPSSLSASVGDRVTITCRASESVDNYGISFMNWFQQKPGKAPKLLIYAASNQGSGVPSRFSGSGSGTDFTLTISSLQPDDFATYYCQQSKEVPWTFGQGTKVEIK &field=Mean % WT Binding returns 566

GET /value?item= Refmab #1 (antibody, V domains shown, The alanine scan used IgG or Fab; also called hP67.6) VH: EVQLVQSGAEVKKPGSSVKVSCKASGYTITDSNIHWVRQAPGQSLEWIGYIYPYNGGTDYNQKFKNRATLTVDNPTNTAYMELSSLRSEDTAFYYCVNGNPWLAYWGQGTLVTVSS VL: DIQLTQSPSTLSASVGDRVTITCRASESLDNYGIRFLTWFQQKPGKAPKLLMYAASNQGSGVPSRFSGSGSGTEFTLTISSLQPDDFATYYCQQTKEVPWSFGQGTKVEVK &field=Mean % WT Binding returns 100

GET /value?item= Refmab #4 (antibody, V domains shown, The alanine scan used IgG or Fab) VH: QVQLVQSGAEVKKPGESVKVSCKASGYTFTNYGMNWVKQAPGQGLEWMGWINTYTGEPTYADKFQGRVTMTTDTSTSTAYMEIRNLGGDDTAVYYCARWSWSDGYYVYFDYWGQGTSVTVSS VL: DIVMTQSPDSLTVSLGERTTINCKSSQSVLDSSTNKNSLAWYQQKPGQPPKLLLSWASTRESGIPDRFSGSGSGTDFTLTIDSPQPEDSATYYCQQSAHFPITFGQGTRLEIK &field=Mean % WT Binding returns 212

GET /value?item= Refmab #2 (antibody, V domains shown, The alanine scan used IgG or Fab) VH: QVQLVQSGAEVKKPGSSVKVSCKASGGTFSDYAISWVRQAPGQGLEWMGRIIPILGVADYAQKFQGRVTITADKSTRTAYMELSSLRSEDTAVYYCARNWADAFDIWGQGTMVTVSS VL: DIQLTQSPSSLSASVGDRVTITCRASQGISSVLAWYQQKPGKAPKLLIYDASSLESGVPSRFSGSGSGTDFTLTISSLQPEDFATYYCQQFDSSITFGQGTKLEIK &field=Mean % WT Binding returns 121
